Catalogue of compounds with associated melting point

Prompt: Item under review: COc1ccc(C2(C#Cc3cccc(N)c3)CCCC(=O)C2)cc1OC1CCCC1 (stereo not drawn) . Reported melting point?
Response: 100 to 102 °C

Prompt: Item under review: "Fc1ccc(Nc2ncnc3cnc(N4CCC(N5CCCC5)CC4)nc23)cc1Cl" . Reported melting point?
Response: 202 to 204 °C

Prompt: Item under review: NC1CCN(C(=O)c2ccc(-c3[nH]nc4c3C(=O)c3c(NC(=O)NN5CCOCC5)cccc3-4)s2)C1 (stereo not drawn) . Reported melting point?
Response: 201 to 202 °C

Prompt: Item under review: "CCSc1cc(C(=O)O)cc(S(N)(=O)=O)c1Oc1ccccc1" . Reported melting point?
Response: 225 to 227 °C

Prompt: Item under review: "OCC12CCCN(CCC1)C2" . Reported melting point?
Response: 64 to 65.5 °C

Prompt: Item under review: "C#CCN(Cc1ccc2nc[nH]c(=O)c2c1)c1ccc(C(=O)NCc2cccnc2)cc1" . Reported melting point?
Response: 137 to 139 °C

Prompt: Item under review: CCOc1ccc(C(c2ccc(C(C)(C)C)cc2)C(C)[N+](=O)[O-])cc1 (stereo not drawn) . Reported melting point?
Response: 79 to 82 °C

Prompt: Item under review: COC(=O)c1ccc(C(C)O)cc1 (single isomer, unassigned; (+)) . Reported melting point?
Response: 52 to 53 °C

###

Catalogue of compounds with associated melting point

compound | test result
CSc1ccccc1NC(=O)Nc1ccc(N2CCN(C(=O)Nc3ccc(OCCO)cc3C(F)(F)F)CC2)cc1 | 115 to 116 °C

Prompt: Item under review: "COc1ccc(C(Cc2cc(Cl)nc(Cl)c2)=NO)cc1OC1CCCC1" . Reported melting point?
Response: 139 to 140 °C

Prompt: Item under review: CCC(C)(O)CCC1C(C)(OC(C)=O)CCC2C(C)(C)CCCC21C (stereo not given) . Reported melting point?
Response: 92 to 94 °C

Prompt: Item under review: "O=C(O)[C@@H](Cc1ccccn1)Nc1cc(-c2ccc(OCc3ccccc3)cc2)ncn1" . Reported melting point?
Response: 142 °C

###

Catalogue of molecules with associated melting point

Prompt: Item under review: O=S(=O)(c1ccc(F)cc1)c1cncc(OC2SCC(O)C(O)C2O)c1 (stereo not drawn) . Reported melting point?
Response: 93 to 96 °C

Prompt: Item under review: "CCCCNC(=O)NS(=O)(=O)CCc1c(C2CC2)nn(C)c1-n1ccc2cc(Cl)cnc21" . Reported melting point?
Response: 167 to 168 °C

Prompt: Item under review: "CCOC(=O)NN=Cc1nc(-c2ccccc2)[nH]c1C" . Reported melting point?
Response: 209 to 211 °C

Prompt: Item under review: "NS(=O)(=O)c1cc(C(=O)O)cc([N+](=O)[O-])c1Oc1cccc(Cl)c1" . Reported melting point?
Response: 230 to 232 °C

Prompt: Item under review: CC1(C)C(=O)N(Cc2ccccc2Cl)OC1O (stereo not drawn) . Reported melting point?
Response: 122 to 126 °C

Prompt: Item under review: "CC(=O)N[C@@H](c1ccccc1)[C@@H](O)C(=O)OC(C)C" . Reported melting point?
Response: 104 to 106 °C

Prompt: Item under review: "O=C1NC(=O)c2c1c(-c1ccccc1)cc1c2c2cc(O)ccc2n1CCCn1ccnc1" . Reported melting point?
Response: 309 to 311 °C

Prompt: Item under review: "CC(=O)NC[C@H]1CN(c2ccc(N3CCC(C#N)(NNC(=O)c4cccs4)CC3)c(F)c2)C(=O)O1" . Reported melting point?
Response: 226 to 230 °C

Reference source: a melting point compilation (Tetko et al.; mined from patent text by program, amines drawn as free bases though some values may be those of a salt)
